System: Vero
EXPERIMENT_DESCRIPTION: Antiviral activity was determined in plaque reduction assay in vero cells against HSV-1 F strain
Type: functional
PROTOCOL_CONDITIONS: Chlorocebus sabaeus, read-out: ID50 (the source's name)
MEASURED_PROPERTY: IC50 (µM)
One number for each entry, in µM.

Study these solved cases before continuing.
Give the measured IC50 for "Nc1nc(S)c2ncn(COC(CO)CO)c2n1"
9

Note down IC50 recorded for "Nc1ncc2ncn(COC(CO)CO)c2n1"
16

Turning to the following compound.
Look up IC50 of "Nc1nc2c(ncn2COCCO)c(=O)[nH]1" and report it.
0.5

---

Task for the reader: assign each of the following molecules its reported pIC50.
Test system: Vero
EXPERIMENT_DESCRIPTION: Antiviral activity was determined in plaque reduction assay in vero cells against HSV-1 F strain
Assay type: functional
PROTOCOL_CONDITIONS: Chlorocebus sabaeus, read-out: ID50 (the source's name)
pIC50: −log10 of the molar value.

Sample records with pIC50:
State its pIC50: "O=c1ccn(COC(CO)CO)c(=O)[nH]1"
< 4.00

Give pIC50 for the following molecule: "O=c1[nH]c(=O)n(COC(CO)CO)cc1F"
< 4.00

Let's switch to this molecule now.
Determine its reported pIC50: "Nc1ncnc2c1ncn2COC(CO)CO"
< 4.00
